- STUDY_SYSTEM: human S1P receptor EDG-5 (S1P2) (Homo sapiens, UniProt O95136)
- Construct: expressed in transfected cells
- Sequence (O95136 whole entry): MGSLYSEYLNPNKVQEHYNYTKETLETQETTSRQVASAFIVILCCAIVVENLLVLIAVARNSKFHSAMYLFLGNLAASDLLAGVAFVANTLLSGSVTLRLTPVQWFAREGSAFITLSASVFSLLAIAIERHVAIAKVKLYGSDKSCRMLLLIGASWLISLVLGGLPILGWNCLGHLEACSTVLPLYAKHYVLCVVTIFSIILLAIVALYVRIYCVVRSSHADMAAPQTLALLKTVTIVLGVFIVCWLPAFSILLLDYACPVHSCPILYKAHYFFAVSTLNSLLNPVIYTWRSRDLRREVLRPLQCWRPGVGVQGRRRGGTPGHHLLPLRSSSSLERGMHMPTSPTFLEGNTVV
- EXPERIMENT_NOTES: S1P receptor profiling, GTP[γ-35S] binding SPA, S1P2
- Format: biochemical
- ASSAY_CONDITIONS: membranes of transfected CHO or RH7777 cells
PARAMETER: EC50

{"COMPOUND": "CCOc1ccc(CCOc2c(Cl)cc(CC[C@@](C)(N)COP(=O)(O)O)cc2OC)cc1 [Example 10]", "STUDY_SYSTEM": "human S1P receptor EDG-5 (S1P2) (Homo sapiens, UniProt O95136)", "EC50": "> 10 µM"}
{"COMPOUND": "CCCCCOc1c(Cl)cc(CC[C@@](C)(N)COP(=O)(O)O)cc1Cl [Example 4]", "STUDY_SYSTEM": "human S1P receptor EDG-5 (S1P2) (Homo sapiens, UniProt O95136)", "EC50": "> 10 µM"}

Consider the additional compound presented here.
So what's the measured EC50 for this one? COc1cc(CC[C@@](C)(N)COP(=O)(O)O)cc(Cl)c1OCCCC(F)(F)C(F)(F)F [Example 6] > 10 µM

* * *

- STUDY_SYSTEM: human S1P receptor EDG-6 (S1P4) (Homo sapiens, UniProt O95977)
- Sequence (O95977 whole entry): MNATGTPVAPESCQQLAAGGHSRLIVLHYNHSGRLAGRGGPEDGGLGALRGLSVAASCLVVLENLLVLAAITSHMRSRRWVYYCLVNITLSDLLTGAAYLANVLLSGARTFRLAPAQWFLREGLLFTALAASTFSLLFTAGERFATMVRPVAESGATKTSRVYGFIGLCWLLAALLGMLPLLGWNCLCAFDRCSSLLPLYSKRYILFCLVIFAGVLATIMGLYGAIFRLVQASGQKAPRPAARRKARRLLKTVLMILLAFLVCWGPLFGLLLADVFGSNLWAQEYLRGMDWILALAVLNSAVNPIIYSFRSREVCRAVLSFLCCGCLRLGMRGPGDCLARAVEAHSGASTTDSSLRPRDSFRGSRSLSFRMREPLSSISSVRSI
- EXPERIMENT_NOTES: S1P receptor profiling, GTP[γ-35S] binding SPA, S1P4
- ASSAY_CONDITIONS: GTP[γ-35S] binding, membranes of transfected CHO or RH7777 cells
PARAMETER: EC50 (nM)

(A) CCCCCOc1c(Cl)cc(CC[C@@](C)(N)COP(=O)(O)O)cc1Cl [Example 4]
(B) COc1cc(CC[C@@](C)(N)COP(=O)(O)O)cc(Cl)c1OCCCC(F)(F)C(F)(F)F [Example 6]
I'm curious, which of these has a smaller EC50 number: A or B ? Mark your answer with the label of the selected entry. A
(A: 0.2 nM, B: 0.8 nM)
